All figures here come from patent US20190135908A1.

Target: T1, Human His-GDF15: HIS-tagged human GDF15 (human, UniProt Q99988 195-308)
T1 construct: not shown: His tag
T1 sequence: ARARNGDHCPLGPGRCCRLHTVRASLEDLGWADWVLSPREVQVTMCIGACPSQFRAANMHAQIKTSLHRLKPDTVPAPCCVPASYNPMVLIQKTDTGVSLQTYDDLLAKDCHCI
Test: Biacore SPR, IgG captured via anti-human Fc, GDF15 in flow
Measured property: Kd (nM)
Quick reminder: number only, in nM, skip the unit.

Need Kd of ABGDF15-F (antibody, human IgG1, lambda, V domains shown, captured through anti-human Fc in the Biacore assay) VH: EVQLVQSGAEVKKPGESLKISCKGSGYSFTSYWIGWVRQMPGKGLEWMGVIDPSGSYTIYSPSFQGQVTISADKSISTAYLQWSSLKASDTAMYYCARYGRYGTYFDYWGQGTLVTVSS VL: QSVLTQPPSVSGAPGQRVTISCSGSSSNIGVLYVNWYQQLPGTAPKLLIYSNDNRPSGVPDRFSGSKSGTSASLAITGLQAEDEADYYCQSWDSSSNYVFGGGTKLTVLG , thanks.
0.0115
